# Experimental System: T1, human SIRPβ1v1, extracellular domain, Avi-FXa-Fc tag (human, biotinylated)
# T1 construct: also called huSIRPβ1v1
# T1 sequence (chain, as listed by the source limits assumed): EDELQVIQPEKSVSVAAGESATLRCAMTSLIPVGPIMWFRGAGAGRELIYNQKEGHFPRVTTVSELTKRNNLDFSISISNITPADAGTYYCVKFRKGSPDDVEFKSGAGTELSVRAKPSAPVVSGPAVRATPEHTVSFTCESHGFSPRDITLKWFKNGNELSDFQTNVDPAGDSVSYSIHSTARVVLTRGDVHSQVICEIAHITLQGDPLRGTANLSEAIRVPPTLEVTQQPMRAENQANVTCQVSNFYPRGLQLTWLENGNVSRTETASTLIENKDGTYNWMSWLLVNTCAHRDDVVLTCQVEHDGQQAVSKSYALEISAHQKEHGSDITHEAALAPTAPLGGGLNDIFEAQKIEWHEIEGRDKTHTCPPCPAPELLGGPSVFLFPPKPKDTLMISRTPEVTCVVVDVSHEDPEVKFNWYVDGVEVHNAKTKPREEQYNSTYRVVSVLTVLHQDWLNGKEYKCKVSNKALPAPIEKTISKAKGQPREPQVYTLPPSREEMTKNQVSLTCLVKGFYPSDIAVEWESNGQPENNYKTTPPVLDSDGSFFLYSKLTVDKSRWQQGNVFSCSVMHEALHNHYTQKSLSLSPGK
# Protocol Notes: SPR, captured biotinylated antigen
Observed Property: log10(Kd) (log10 of the value in nM)
Kindly note that the scale is log10 and the underlying Kd is in nM.

Query: Need log10(Kd) of humanized anti-SIRPα antibody 5 (antibody, human IgG1, kappa, L234A L235A, V domains shown, human IgG1 LALA, kappa; also called mAb 5) VH: RQLVESGGGLVQPGGSLRLSCAASGFSLSSHGISWVRQAPGKGLEYIGTIGTGVITYYASWAKGRFTGSKTSSTAYLQMTSLRAEDTAVYYCARGSAWNDPFDYWGQGTLVTVSS VL: DIEMTQSPSSVSASVGDRVTLTCQASQSVYGNNDLAWYQQKPGQAPKLLIYLASTLATGVPSRFSGSGSGTDFTLTISSLQPEDFATYYCLGGGDDEADNVFGGGTKVEIKR , thanks.
Reply: -0.23

Query: Using the record for humanized anti-SIRPα antibody 10 (antibody, human IgG1, kappa, L234A L235A, V domains shown, human IgG1 LALA, kappa; also called mAb 10) VH: RQLVESGGGLVQPGGSLRLSCAASGFSLSSHGISWVRQAPGKGLEWVGTIGTGGITYYASWAKGRFTGSKTSSTAYMELSSLRAEDTAVYYCARGSAWNDPFDIWGQGTLVTVSS VL: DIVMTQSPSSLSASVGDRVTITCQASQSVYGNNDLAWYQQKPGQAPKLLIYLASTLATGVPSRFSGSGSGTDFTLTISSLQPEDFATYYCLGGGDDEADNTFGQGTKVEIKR , report its log10(Kd).
Reply: 1.11

Query: // lookup log10(Kd) for humanized anti-SIRPα antibody 9 (antibody, human IgG1, kappa, L234A L235A, V domains shown, human IgG1 LALA, kappa; also called mAb 9) VH: RQLVESGGGLVQPGGSLRLSCAASGFSLSSHGISWVRQAPGKGLEWVGTIGTGVITYYASWAKGRFTGSKTSSTAYLQMTSLRSEDTAVYYCARGSAWNDPFDYWGQGTLVTVSS VL: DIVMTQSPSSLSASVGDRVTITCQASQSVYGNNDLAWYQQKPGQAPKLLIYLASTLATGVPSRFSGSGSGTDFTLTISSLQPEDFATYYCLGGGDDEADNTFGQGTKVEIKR
Reply: 0.16

Query: For the binder HEFLB (humanized IgG4) (antibody, V domains shown, humanized IgG4 of WO 2017/178653; also called humanized HEFLB) VH: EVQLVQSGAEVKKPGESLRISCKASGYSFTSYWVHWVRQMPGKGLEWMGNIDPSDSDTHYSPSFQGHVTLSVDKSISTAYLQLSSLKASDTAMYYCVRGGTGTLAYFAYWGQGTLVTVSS VL: DVVMTQSPLSLPVTLGQPASISCRSSQSLVHSYGNTYLYWFQQRPGQSPRLLIYRVSNRFSGVPDRFSGSGSGTDFTLKISRVEAEDVGVYYCFQGTHVPYTFGGGTKVEIKR , what log10(Kd) is on record?
Reply: -0.79

Query: Which log10(Kd) is reported for this binder? humanized anti-SIRPα antibody 7 (antibody, human IgG1, kappa, L234A L235A, V domains shown, human IgG1 LALA, kappa; also called mAb 7) VH: RQLVESGGGLVQPGGSLRLSCAASGFSLSSHGISWVRQAPGKGLEWVGTIGTGVITYYASWAKGRFTGSKTSSTAYLQMTSLRAEDTAVYYCARGSAWNDPFDYWGQGTLVTVSS VL: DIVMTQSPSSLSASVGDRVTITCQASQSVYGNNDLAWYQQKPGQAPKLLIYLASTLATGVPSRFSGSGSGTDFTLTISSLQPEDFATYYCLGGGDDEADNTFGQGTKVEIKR
Reply: 0.22

Query: Give the measured log10(Kd) of 29AM4-5-LALA (IgG1) (antibody, V domains shown, human IgG1 LALA, kappa; also called 29AM4-5huIgG1LALA) VH: EVQLVESGGGLVQPGGSLRLSCAASGFNISYYFIHWVRQAPGKGLEWVASVYSSFGYTYYADSVKGRFTISADTSKNTAYLQMNSLRAEDTAVYYCARFTFPGLFDGFFGAYLGSLDYWGQGTLVTVSS VL: DIQMTQSPSSLSASVGDRVTITCRASQSVSSAVAWYQQKPGKAPKLLIYSASSLYSGVPSRFSGSRSGTDFTLTISSLQPEDFATYYCQQAVNWVGALVTFGQGTKVEIKR .
Reply: -1.22
